Biological target: RARbeta (Homo sapiens)
Sequence (P10826 183-417 limits assumed): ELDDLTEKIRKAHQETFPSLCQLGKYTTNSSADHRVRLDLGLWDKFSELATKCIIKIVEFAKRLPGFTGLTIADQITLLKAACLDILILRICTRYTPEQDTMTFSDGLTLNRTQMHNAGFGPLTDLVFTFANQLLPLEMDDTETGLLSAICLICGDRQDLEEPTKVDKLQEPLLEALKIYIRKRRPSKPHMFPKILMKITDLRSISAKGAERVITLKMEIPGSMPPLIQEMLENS
Test: Transactivation test, HeLa reporter cells (RARbeta)
Conditions: apparent Kd, Schild regression against reference antagonist, HeLa luciferase reporter; read-out: RARbeta Kdapp
ENDPOINT: Kd (nM)
A number alone suffices; assume nM.

Exercise: Reported Kd, compound `CC1(C)CCC(C)(C)c2cc(C(COc3ccc(C(=O)O)c(O)c3)=NO)ccc21` : ____
Key: 1030
